# Procedure Summary: in vitro
# Condition Notes: human, hela cells, % viability
Readout Type: viability at 28.5 h, 10 µM (%)
Quick reminder: number only, in %, skip the unit.

Query: Dear colleague, please send me the reported viability at 28.5 h, 10 µM for CC(C)(C)c1cc(C[C@H]2CNCC[C@H]2CC(=O)N2CCN(c3ccccn3)CC2)no1 when you can.
Result: 87.4

Query: Dear colleague, please send me the reported viability at 28.5 h, 10 µM for CC12CCC(=O)N1C(C(=O)NCCNc1ccc(S(C)(=O)=O)cc1[N+](=O)[O-])CS2 (stereo not drawn) when you can.
Result: 87.6

Query: Dear colleague, please send me the reported viability at 28.5 h, 10 µM for NS(=O)(=O)c1ccc(CCNCC2CCCCC2)cc1 when you can.
Result: 92.5

Query: Dear colleague, please send me the reported viability at 28.5 h, 10 µM for Cc1ccc(-n2c(SCC(=O)N3CCOCC3)nnc2-c2ccccc2O)c(C)c1 when you can.
Result: 88.1

Query: Dear colleague, please send me the reported viability at 28.5 h, 10 µM for CC(C)Cc1ccc(C(C)c2nc3ccccc3[nH]2)cc1 (stereo not drawn) when you can.
Result: 89.7

Query: Dear colleague, please send me the reported viability at 28.5 h, 10 µM for Cc1ccc(Nc2ncc3c(n2)CCCC3=O)cc1 when you can.
Result: 87.6

Query: Dear colleague, please send me the reported viability at 28.5 h, 10 µM for COC(=O)[C@@H]1Cc2ncn(C(C)C)c2CN1C(=O)CC(C)(C)C when you can.
Result: 88.9

Query: Dear colleague, please send me the reported viability at 28.5 h, 10 µM for CSc1ccc(-n2ncc(-c3ccc(F)cc3F)n2)cc1 when you can.
Result: 91.3

Query: Dear colleague, please send me the reported viability at 28.5 h, 10 µM for O=C(NC(Nc1cccc(C(F)(F)F)c1)C(=O)c1ccccc1)c1ccc(Cl)cc1 (stereo not drawn) when you can.
Result: 89.5
